The following compounds each carry a recorded pIC50 for PIK3CD (Human) (UniProt O00329).
pIC50: −log10 of the molar value.
Measure name: pIC50

[[record]]
smiles_text = "CC[C@H](Nc1ncnc2[nH]cc(F)c12)c1nc2c(Cl)ccc(Cl)c2c(=O)n1-c1cc[nH]n1"
measured_result = 8.52

[[record]]
smiles_text = "C[C@H](Nc1nc(N)nc(N)c1C#N)c1nc2ccc(Cl)cc2c(=O)n1-c1cc[nH]n1"
measured_result = 6.85

